Biological target: Hepatocyte growth factor receptor (Homo sapiens, UniProt P08581, D1228V)
Assay: Inhibition of c-MET D1228V mutant phosphorylation at Tyr1234/Tyr1235 residues in CRISPR/Cas9 modified human NCI-H1993 cells incubated for 4 hrs by HTRF assay
Format: cell-based
measured attribute: IC50

item smiles	result
CCOc1ccn(-c2ccc(F)cc2)c(=O)c1C(=O)Nc1ccc(Oc2ccnc(N)c2Cl)c(F)c1	12.3 to 214 nM

Can you look up the measured IC50 of C[C@@H](c1ccc2nccn2c1)n1nnc2ncc(-c3cnn(C)c3)nc21 for me?
> 31600 nM
